Assay: chemical genetic growth profiling, strain panel (AID 1159580);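 further: tested at 20 µM; growth read once vehicle control cultures reached saturation at 30 °C; 1 = growth at the plate median or of vehicle wells; lower values mean less growth of the strain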
Settings: S. cerevisiae deletion strains, growth OD, locus YLR113W, strain HOG1
Screen size: about 5,500 compounds; about 2,000 (36%) were called active. Roughly 18% stayed inconclusive and do not appear here. No stated cut-off is given here; in the data, active means normalized growth mostly below about 0.91 (no sharp cut-off); inconclusive means no clear call, values can overlap the other calls; inactive means mostly above about 0.92. Some of the results follow.
Answer with one of the outcomes active, inactive

Test call, this compound: CC(C)c1ccc(NCC(O)CSc2ccccc2)cc1 (configuration not stated)
active

Proceed to `Cc1cc(Br)ccc1-n1c(Sc2c([N+](=O)[O-])cc(C(F)(F)F)cc2[N+](=O)[O-])nc2ccccc2c1=O`
active

Proceed to `CC(=O)/C(=C\c1ccccc1)CC(=O)O`
inactive

Proceed to CC(C)(C)NCC(O)c1ccccc1Cl (configuration not stated)
inactive

Proceed to `Cc1ccc(/C(=C\CN2CCCC2)c2ccccn2)cc1`
inactive

Proceed to `O=C(c1ccccc1)c1cc(Cl)ccc1NC(=S)Nc1ccc(F)cc1`
active

Proceed to O=C1O[C@H](C(O)CO)C(O)=C1O (some centres not stated)
inactive

Proceed to C=C(C)C1CC=C(CO)CC1 (configuration not stated)
inactive

Proceed to `O=C(CCNNC(=O)c1ccncc1)NCc1ccccc1`
inactive

Proceed to `C=C[C@@H](C1=CC(=O)C(OC)=C(OC)C1=O)c1ccccc1`
active

Proceed to Nc1ncnc2c1ncn2C1C[C@H](O)[C@@H](CO)O1 (some centres not stated)
active

Proceed to `OC[C@H]1O[C@H](OC[C@H]2O[C@@H](O)[C@H](O)[C@@H](O)[C@@H]2O)[C@H](O)[C@@H](O)[C@H]1O`
inactive

Proceed to `Nc1ncnc2c1ncn2[C@@H]1O[C@H](CO)[C@@H](O)[C@H]1O`
inactive

Proceed to CCN(CC)CCNC(C(=O)OCCC(C)C)c1ccccc1 (configuration not stated)
inactive

Proceed to `O=C(O)/C=C/C=C/c1ccccc1`
active

Proceed to `Oc1c(I)cc(I)c2cccnc12`
active

Proceed to CCCCCCCCCCCCCCCC(=O)OCC(O)[C@H]1OC(=O)C(O)=C1O (some centres not stated)
active

Proceed to `FC(F)(F)c1cccc(NC(=S)Nc2csc(C(F)(F)F)c2-c2ccccc2)c1`
inactive

Proceed to CC(=O)c1c(O)c(C)c(O)c2c1OC1=CC(=O)C(C(C)=O)C(=O)C12C (configuration not stated)
active

Proceed to CCC(Cc1c(I)cc(I)c(N)c1I)C(=O)O (configuration not stated)
active

Proceed to `O=C(O)C1=CCNCC1`
inactive

Proceed to C=CC(C1=CC(=O)C(OC)=CC1=O)c1ccc(OC)cc1 (configuration not stated)
inactive

Proceed to `C=C(C)[C@H]1CC=C(C(=O)O)CC1`
active

Proceed to CC(C)(O/N=C(/C(=O)N[C@@H]1C(=O)N2C(C(=O)[O-])=C(C[n+]3ccccc3)CSC12)c1csc(N)n1)C(=O)O (some centres not stated)
inactive

Proceed to `CC(C)c1ccc(N2C=Nc3ccc(C(C)C)cc3C2)cc1`
inactive

Proceed to `O=C(O)/C=C/c1ccccc1`
active

Proceed to CC(C)NCC(O)c1ccc2ccccc2c1 (configuration not stated)
inactive

----------
Assay: chemical genetic growth profiling, strain panel (AID 1159580);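 further: tested at 20 µM; growth read once vehicle control cultures reached saturation at 30 °C; 1 = growth at the plate median or of vehicle wells; lower values mean less growth of the strain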
Settings: S. cerevisiae deletion strains, growth OD, locus YOR069W, strain VPS5, active compounds read low
The campaign covered roughly 5,500 compounds. About 2,000 (36%) were called active. Not shown: some 18% with an inconclusive outcome. The list shows a part of the results.
readout name: normalized growth
Answer with the value's number alone.

What value of normalized growth has been reported for the following compound? `CC(=O)Nc1ccc(S(=O)(=O)Nc2ccc([N+](=O)[O-])cc2)cc1`
1

Proceed to `CCN(CC)CCOc1ccc(/C(=C(\Cl)c2ccccc2)c2ccccc2)cc1`
0.0488

Proceed to `CC(C)N(C(=O)SCC(Cl)=C(Cl)Cl)C(C)C`
1.02

Proceed to CC(C)NCC(O)c1ccc(O)c(O)c1 (stereo unspecified)
1.01

Proceed to `O=C(O)CF`
0.99

Proceed to CC(C)(C)NCC(O)c1ccccc1Cl (stereo unspecified)
0.991

----------
Assay: chemical genetic growth profiling, strain panel (AID 1159580);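 further: tested at 20 µM; growth read once vehicle control cultures reached saturation at 30 °C; 1 = growth at the plate median or of vehicle wells; lower values mean less growth of the strain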
Details: S. cerevisiae deletion strains, growth OD, locus YLR085C, strain ARP6, active compounds read low
In all, about 5,500 compounds went through this assay and about 2,000 (36%) were called active. Another 18% or so got no clear call; they are omitted. The list shows a part of the results.
For each of the compounds below, state its normalized growth.
Answer with the value's number alone.

What value of normalized growth has been reported for the following compound? `COC(=O)c1cc([N+](=O)[O-])ccc1NC(C)=O`
0.977

Proceed to `CC(=O)c1sc(SCc2ccc(Cl)cc2)c2c1CC(C)(C)CC2=O`
1.02

Proceed to `Cc1[nH]ncc1-c1ccccc1`
0.994

Proceed to `CC(=O)N/C(=C/c1ccc2c(c1)OCO2)C(=O)O`
1.02

Proceed to `O=C(NCCSCc1ccco1)c1ccc(Cl)cc1`
1

Proceed to `CCOc1ccc(/C=C(\C)[N+](=O)[O-])cc1OC`
0.163

Proceed to `CCCCNC(=O)NCCSCc1ccco1`
0.943

Proceed to `CSc1c(C#N)c(-c2cccs2)nn1C`
0.784

Proceed to `COC(=O)c1ccc(-c2ccc(Cl)cc2)s1`
0.577

----------
For each of the compounds below, state its normalized growth.
Test: chemical genetic growth profiling, strain panel (AID 1159580);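 further: tested at 20 µM; growth read once vehicle control cultures reached saturation at 30 °C; 1 = growth at the plate median or of vehicle wells; lower values mean less growth of the strain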
Conditions: S. cerevisiae deletion strains, growth OD, locus YDR392W, strain spt3, active compounds read low
In all, about 5,500 compounds went through this assay and about 2,000 (36%) were called active. Not shown: some 18% with an inconclusive outcome. The list shows a part of the results.
Answer with the value's number alone.

What value of normalized growth has been reported for the following compound? NC(=NCCC[C@H](N)C(=O)O)NC(CCC(=O)O)C(=O)O (stereo partly drawn)
1.02

Proceed to O=C1C=CC2=C3c4cc(O)c(O)cc4CC3(O)COC2=C1O (stereo not drawn)
1.03

Proceed to `O=[N+]([O-])c1cc(O)c(O)c([N+](=O)[O-])c1`
1.08

Proceed to C[C@H]1[C@H]2CCC3C4CC=C5C[C@@H](N(C)C)CC[C@]5(C)C4CC[C@@]32CN1C (stereo partly drawn)
0.551

Proceed to `CCN(CC)CCOc1ccc(/C(=C(\Cl)c2ccccc2)c2ccccc2)cc1`
0.0803

Proceed to O=C(O)CCCCC1CCSS1 (stereo not drawn)
0.888

Proceed to `CC(=O)NCCCS(=O)(=O)O`
0.984

Proceed to `Oc1c(Br)cc(Br)c2cccnc12`
0.0808

Proceed to `Cc1ccc(/C(=C\CN2CCCC2)c2ccccn2)cc1`
0.927

Proceed to NCC(O)c1ccc(O)cc1 (stereo not drawn)
0.995

Proceed to Cc1c(O)c(O)cc2c1CC=C1[C@@]2(C)CC[C@@]2(C)C3C[C@](C)(C(=O)O)CC[C@]3(C)CC[C@]12C (stereo partly drawn)
0.125

Proceed to `CC/C(=C(\c1ccccc1)c1ccc(OCCN(C)C)cc1)c1ccccc1`
0.0847

Proceed to `C=C(C)[C@H]1CC=C(C(=O)O)CC1`
0.934

Proceed to COC(=O)C[C@H]1C(C)(C)C(=O)[C@@H]2CC3=C4CC(=O)O[C@@H](c5ccoc5)[C@]4(C)CCC3[C@@]1(C)C2=O (stereo partly drawn)
0.989

Proceed to `CCN(CC)CCOc1ccc2c(c1)C(=O)c1cc(OCCN(CC)CC)ccc1-2`
0.807

Proceed to CC(C)NCC(O)c1ccc(O)c(O)c1 (stereo not drawn)
0.912

Proceed to `Cc1ccsc1/C=C/C1=NCCCN1C`
0.992

Proceed to C=CC(C)(O)CC/C=C(\C)CCC=C(C)C (stereo not drawn)
0.454

Proceed to `CN[C@H](CC(=O)O)C(=O)O`
0.969

Proceed to `CC(=O)NCCCCCC(=O)O`
0.891

Proceed to CCCC(C)C1(CC)C(=O)NC(=O)NC1=O (stereo not drawn)
1.02

Proceed to O=C(OC1Cc2c(O)cc(O)cc2OC1c1cc(O)c(O)c(O)c1-c1c(C2Oc3cc(O)cc(O)c3CC2OC(=O)c2cc(O)c(O)c(O)c2)cc(O)c(O)c1O)c1cc(O)c(O)c(O)c1 (stereo not drawn)
1.02

Proceed to CO[C@H]1/C=C/O[C@@]2(C)Oc3c(C)c(O)c4c(O)c(c5c(nc6cc(C)ccn65)c4c3C2=O)NC(=O)/C(C)=C\C=C\[C@H](C)[C@H](O)[C@@H](C)C(O)[C@@H](C)[C@H](OC(C)=O)[C@@H]1C (stereo partly drawn)
0.961

Proceed to `O=C(NC(=O)c1c(F)cccc1F)Nc1ccc(Cl)cc1`
0.955

Proceed to `O=C(O)C1=CCNCC1`
0.98

Proceed to `CC(=O)Nc1cc([As](=O)(O)O)ccc1O`
0.905

Proceed to CCC(Cc1c(I)cc(I)c(N)c1I)C(=O)O (stereo not drawn)
0.711

Proceed to `O=[N+]([O-])c1ccc(O)c([N+](=O)[O-])c1`
0.674
